Source: ChEMBL document CHEMBL4482312

Biological target: DNA repair protein RAD52 homolog (Homo sapiens, UniProt P43351)
Sequence (P43351 whole entry): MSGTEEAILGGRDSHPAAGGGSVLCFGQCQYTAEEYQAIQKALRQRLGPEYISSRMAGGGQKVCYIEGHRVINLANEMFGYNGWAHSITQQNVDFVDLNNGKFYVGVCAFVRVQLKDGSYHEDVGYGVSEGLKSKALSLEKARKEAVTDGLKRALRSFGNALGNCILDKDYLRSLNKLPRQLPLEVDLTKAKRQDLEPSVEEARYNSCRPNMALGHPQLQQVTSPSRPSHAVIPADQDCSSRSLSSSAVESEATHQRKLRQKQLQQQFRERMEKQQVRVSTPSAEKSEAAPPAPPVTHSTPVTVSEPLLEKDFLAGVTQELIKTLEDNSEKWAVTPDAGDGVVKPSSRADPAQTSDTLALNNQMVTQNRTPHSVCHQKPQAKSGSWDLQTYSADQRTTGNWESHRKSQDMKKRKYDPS
Experiment: Inhibition of RAD52 (unknown origin) assessed as reduction in RAD52-ssDNA interaction using Cy3-dT30-Cy5 ssDNA by FRET assay

compound	IC50
CCOc1cc(C(Nc2cc(C)ccn2)c2ccc3ccc(C)nc3c2O)ccc1OC (centres undefined)	Nd(Insoluble)
CCOc1ccccc1NC(=O)c1c(NC(=O)Cc2ccc(OC)cc2)sc2c1CCC2	Nd(Insoluble)
O=c1c2ccccc2nc(CSc2[nH]cnc3ncnc2-3)n1-c1cccc(C(F)(F)F)c1	Nd(Insoluble)
